FYI, the data here is from paper PMC8584173.

Record form. Attribute: MIC. Fill in for each entry.
# Test system: C. albicans ATCC 90028
# PROTOCOL DETAILS: MIC, twofold serial microdilution
# Format: cell-based, Candida albicans
# CONDITION DETAILS: C. albicans ATCC 90028, 24 h, 35 °C
A number alone suffices; assume mg/L.

Exam item: Fill in the blank: the reported MIC of O=[N+]([O-])c1cc([N+]2=C(Nc3cccc(Br)c3)[S][Cu-2]23[S]C(Nc2cccc(Br)c2)=[N+]3c2ccc(Cl)c([N+](=O)[O-])c2)ccc1Cl [Compound 2] is ____.
Marked response: 64

Exam item: Another molecule to check: O=[N+]([O-])c1cc(NC2=[N+](c3ccc(Cl)c([N+](=O)[O-])c3)[Cu-2]3([S]2)[S]C(Nc2ccc(Cl)c([N+](=O)[O-])c2)=[N+]3c2ccc(Cl)c([N+](=O)[O-])c2)ccc1Cl [Compound 6]
Marked response: 64

Exam item: Now this one: O=[N+]([O-])c1cc([N+]2=C(Nc3ccc(I)cc3)[S][Cu-2]23[S]C(Nc2ccc(I)cc2)=[N+]3c2ccc(Cl)c([N+](=O)[O-])c2)ccc1Cl [Compound 8]
Marked response: 128

Exam item: Please do the same for O=[N+]([O-])c1cc([N+]2=C(Nc3ccc(Br)cc3)[S][Cu-2]23[S]C(Nc2ccc(Br)cc2)=[N+]3c2ccc(Cl)c([N+](=O)[O-])c2)ccc1Cl [Compound 3] as well.
Marked response: 64

Exam item: Please give the result for O=[N+]([O-])c1cc([N+]2=C(Nc3ccc(F)c(Cl)c3)[S][Cu-2]23[S]C(Nc2ccc(F)c(Cl)c2)=[N+]3c2ccc(Cl)c([N+](=O)[O-])c2)ccc1Cl [Compound 4] too.
Marked response: 128

Exam item: Repeat for the following molecule: O=[N+]([O-])c1cc([N+]2=C(Nc3ccc(Cl)c(Cl)c3)[S][Cu-2]23[S]C(Nc2ccc(Cl)c(Cl)c2)=[N+]3c2ccc(Cl)c([N+](=O)[O-])c2)ccc1Cl [Compound 5]
Marked response: 128

Exam item: Same lookup for O=[N+]([O-])c1cc([N+]2=C(Nc3ccccc3F)[S][Cu-2]23[S]C(Nc2ccccc2F)=[N+]3c2ccc(Cl)c([N+](=O)[O-])c2)ccc1Cl [Compound 7] , please.
Marked response: 128
